Biological target: Recombinant human IL-1β (BioLegend 579404) (human, UniProt P01584 117-269)
Test: cell-based or functional assay
Starred links: 1 amine or outer side, 2 acyl side, 3 side chain; linkers in the order of their positions; H or OH if unused. Non-standard residues stand in square brackets, D forms with d. OrnMe3 = ornithine with side-chain trimethylammonium, C[N+](C)(C)CCC[C@H](N[*:1])C(=O)[*:2]; Ala(2-carboxypyrimidin-5-yl) = N[C@@H](Cc1cnc(C(=O)O)nc1)C(=O)O; dPro(4R-(4-pyridylmethyl)) = O=C(O)[C@H]1C[C@@H](Cc2ccncc2)CN1; Trp(βS-Me,4-F) = C[C@@H](c1c[nH]c2cccc(F)c12)[C@H](N)C(=O)O; Bip(4'-COOH) = N[C@@H](Cc1ccc(-c2ccc(C(=O)O)cc2)cc1)C(=O)O; dPro(4R-Bzl(4-F)) = O=C(O)[C@H]1C[C@@H](Cc2ccc(F)cc2)CN1; Phe(4-COOH) = N[C@@H](Cc1ccc(C(=O)O)cc1)C(=O)O; Bip = N[C@@H](Cc1ccc(-c2ccccc2)cc1)C(=O)O; Pro(cis-4-F) = O=C(O)[C@@H]1C[C@H](F)CN1; Dap(CONH2) = NC(=O)NC[C@H](N)C(=O)O; d(αMeD) = C[C@@](N)(CC(=O)O)C(=O)O; 4Pal = N[C@@H](Cc1ccncc1)C(=O)O; dOrn = NCCC[C@@H](N)C(=O)O; Dab = NCC[C@H](N)C(=O)O; Aib = CC(C)(N)C(=O)O
Measured attribute: MRC5 IC50 (nM)
Value expressed in nM; do not type the unit.

Some solved cases for reference:
cyclo([Bip][4Pal][Phe(4-COOH)]G[Pro(cis-4-F)][Trp(βS-Me,4-F)][Aib]SW[d(αMeD)][dOrn]Q[Dap(CONH2)]G[dPro(4R-(4-pyridylmethyl))]) (ring closure inferred) [SEQ ID NO 245]
0.027
cyclo([Bip][4Pal][Phe(4-COOH)]G[Pro(cis-4-F)][Trp(βS-Me,4-F)][Aib]SW[Aib][Ala(2-carboxypyrimidin-5-yl)]Q[Dab]G[dPro(4R-(4-pyridylmethyl))]) (ring closure inferred) [SEQ ID NO 269]
0.014

Continue with the binder presented below.
Data request, read-out MRC5 IC50, for cyclo([Bip(4'-COOH)][4Pal][Phe(4-COOH)]G[Pro(cis-4-F)][Trp(βS-Me,4-F)][Aib]SW[Aib][OrnMe3]Q[Dab]G[dPro(4R-Bzl(4-F))]) (ring closure inferred; not fully specified (N-terminus); printed as cyclic, Bip4CO2H-4Pal-Phe4COOH-G-Proc4F-sbMeW4F-Aib-S-W-Aib-OrnMe3-Q-Dab-G-dProc4Bn4F) [SEQ ID NO 297] 0.022

The measurements presented in this section are drawn from patent US20260242419A1.
